Can you tell me IC50 for the items I'm about to list?
Biological target: MAGL (Mus musculus, UniProt O35678)
Sequence (O35678 1-303): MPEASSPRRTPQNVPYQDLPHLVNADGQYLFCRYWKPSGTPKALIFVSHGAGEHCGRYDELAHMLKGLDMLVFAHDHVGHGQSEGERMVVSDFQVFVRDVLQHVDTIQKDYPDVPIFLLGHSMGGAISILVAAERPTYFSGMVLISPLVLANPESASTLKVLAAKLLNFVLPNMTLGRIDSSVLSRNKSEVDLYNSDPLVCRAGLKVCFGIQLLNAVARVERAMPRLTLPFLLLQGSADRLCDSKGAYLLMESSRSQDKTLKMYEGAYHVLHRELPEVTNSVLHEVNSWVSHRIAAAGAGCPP
Assay: In vitro competitive activity-based protein profiling (FP-Rh), mouse MAGL
Format: biochemical
Set-up: from tissue; host or cells: mouse brain membrane fraction
Conditions: Table 1, mouse proteome, 30 min preincubation at 37° C.

INSERT INTO results (molecule, tgt, reported_measurement) VALUES
  ('O=C(ON1C(=O)CNC1=O)N1CCC(CCc2ccc(Cl)cc2)CC1', 'MAGL (Mus musculus, UniProt O35678)', '< 100 nM'),
  ('C#CCCC(=O)N1CCN(C(=O)ON2C(=O)CCC2=O)CC1', 'MAGL (Mus musculus, UniProt O35678)', '> 10000 nM'),
  ('CN(Cc1cccc(-c2cccnc2)c1)C(=O)ON1C(=O)CCC1=O', 'MAGL (Mus musculus, UniProt O35678)', '> 10000 nM'),
  ('O=C(NCCc1ccc(Oc2ccccc2)cc1)ON1C(=O)CCC1=O', 'MAGL (Mus musculus, UniProt O35678)', '> 10000 nM'),
  ('O=C(NCCc1ccc2ccccc2c1)ON1C(=O)CCC1=O', 'MAGL (Mus musculus, UniProt O35678)', '> 10000 nM'),
  ('O=C(ON1C(=O)CNC1=O)N1CCCCC1', 'MAGL (Mus musculus, UniProt O35678)', '> 10000 nM');

Value sought for every listed molecule: IC50.
1. O=C1CCC(=O)N1OC(=O)N1CCCCC1CO (stereo not shown)
2. O=C(ON1C(=O)CNC1=O)N1CCN(C(c2ccc(Cl)cc2)c2ccc(Cl)cc2)CC1

-- reply
> 10000 nM
< 100 nM

====

Molecular target: ABHD6 (Mus musculus)
Sequence (Q8R2Y0 1-336): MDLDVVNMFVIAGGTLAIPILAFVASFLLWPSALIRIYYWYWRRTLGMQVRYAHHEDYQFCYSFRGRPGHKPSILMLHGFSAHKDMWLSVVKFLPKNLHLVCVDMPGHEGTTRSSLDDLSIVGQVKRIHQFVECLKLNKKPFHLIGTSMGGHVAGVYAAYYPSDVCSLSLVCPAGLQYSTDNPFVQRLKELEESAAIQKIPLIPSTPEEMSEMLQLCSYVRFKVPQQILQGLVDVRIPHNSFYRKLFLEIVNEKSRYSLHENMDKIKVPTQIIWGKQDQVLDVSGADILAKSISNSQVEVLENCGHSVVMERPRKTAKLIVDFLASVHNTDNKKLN
Experiment: In vitro competitive ABPP, % inhibition at fixed concentration, ABHD6
Format: biochemical
Design: from tissue
readout.name: inhibition at 1 µM

These recorded examples may help you get a feel for the data.
INSERT INTO measurements (smi, reported_measurement) VALUES
  ('O=C(ON1C(=O)CCC1=O)N1CCN(Cc2ccc(Cl)cc2N2CCN3CCC[C@@H]3C2)CC1', '> 75%'),
  ('Cc1cccc(-c2ccc(CN3CCN(C(=O)ON4C(=O)CCC4=O)CC3)c(C)c2)c1', '25 to 75%'),
  ('Cn1cc(CN2CCN(C(=O)ON3C(=O)CCC3=O)CC2)c(-c2ccccc2Cl)n1', '25 to 75%'),
  ('Cc1cc(-c2cccnc2)ccc1CN1CCN(C(=O)ON2C(=O)CCC2=O)CC1', '25 to 75%');

Value sought for every listed molecule: inhibition at 1 µM.
1. Cc1ccc(N2CCCC2)c(CN2CCN(C(=O)ON3C(=O)CCC3=O)CC2)c1
2. Cc1cnccc1-c1ccc(CN2CCN(C(=O)ON3C(=O)CCC3=O)CC2)c(F)c1
3. C[C@@H]1CN(Cc2ccc(N3CCOCC3)cc2Cl)CCN1C(=O)ON1C(=O)CCC1=O
4. C[C@@H]1CN(Cc2ccc(N3CCOCC3)cc2OC(F)(F)F)CCN1C(=O)ON1C(=O)CCC1=O
5. Cc1c(CN2CCN(C(=O)ON3C(=O)CCC3=O)CC2)cccc1C(=O)N1CCCC1
6. O=C(ON1C(=O)CCC1=O)N1CCN(C(c2cccnc2)c2cccnc2)CC1

-- reply
1. < 25%
2. > 75%
3. < 25%
4. < 25%
5. > 75%
6. < 25%

Value sought for every listed molecule: inhibition at 1 µM.
1. O=C(ON1C(=O)CCC1=O)N1CCN(Cc2cc(C(F)(F)F)ccc2N2CCCC2)CC1
2. O=C(ON1C(=O)CCC1=O)N1CCN(C(c2ccc3c(c2)COC3)c2ccc3c(c2)COC3)CC1
3. Cc1ccc(N2CCOCC2)c(CN2CCN(C(=O)ON3C(=O)CCC3=O)CC2)c1
4. COc1cc(-c2ccccc2)ccc1CN1CCN(C(=O)ON2C(=O)CCC2=O)CC1

-- reply
1. 25 to 75%
2. 25 to 75%
3. 25 to 75%
4. 25 to 75%

Value sought for every listed molecule: inhibition at 1 µM.
1. CS(=O)(=O)N1CCN(C(=O)ON2C(=O)CCC2=O)CC1
2. O=C(ON1C(=O)CCC1=O)N1CCN(Cc2ccc(C(=O)N3CCC3)cc2Cl)CC1
3. Cc1cc(-c2ccc(CN3CCN(C(=O)ON4C(=O)CCC4=O)CC3)c(F)c2)ccn1
4. O=C(ON1C(=O)CCC1=O)N1CCN(Cc2ccc(N3CCOCC3)cc2OC(F)(F)F)CC1
5. O=C(ON1C(=O)CCC1=O)N1CCN(Cc2cc(C(F)(F)F)ccc2N2CCOCC2)CC1
6. O=C(ON1C(=O)CCC1=O)N1CCN(Cc2ccc(Cl)cc2C(=O)N2CCOCC2)CC1
7. O=C(ON1C(=O)CCC1=O)N1CCN(Cc2ccc(Cl)cc2N2CCC2)CC1
8. Cc1cccc(-c2ccc(CN3CCN(C(=O)ON4C(=O)CCC4=O)CC3)nc2C)c1

-- reply
1. < 25%
2. 25 to 75%
3. > 75%
4. 25 to 75%
5. 25 to 75%
6. < 25%
7. 25 to 75%
8. > 75%

Value sought for every listed molecule: inhibition at 1 µM.
1. C[C@@H]1CN(Cc2ccc(N3CCOCC3)cc2F)CCN1C(=O)ON1C(=O)CCC1=O
2. Cn1ncc(Br)c1CN1CCN(C(=O)ON2C(=O)CCC2=O)CC1
3. O=C(ON1C(=O)CCC1=O)N1CCN(Cc2cc(Cl)ccc2C(=O)N2CCCC2)CC1
4. CC(C)c1cc(N2CCOCC2)ccc1CN1CCN(C(=O)ON2C(=O)CCC2=O)CC1
5. O=C(ON1C(=O)CCC1=O)N1CCN(Cc2cc(C(F)(F)F)ccc2C(=O)N2CCOCC2)CC1
6. C[C@H]1CN(Cc2ccc(N3CCOCC3)cc2F)CCN1C(=O)ON1C(=O)CCC1=O
7. Cc1nc(-c2ccccc2F)ccc1CN1CCN(C(=O)ON2C(=O)CCC2=O)CC1
8. Cc1ncccc1-c1ccc(CN2CCN(C(=O)ON3C(=O)CCC3=O)CC2)c(F)c1

-- reply
< 25%
25 to 75%
< 25%
25 to 75%
< 25%
25 to 75%
> 75%
25 to 75%

Value sought for every listed molecule: inhibition at 1 µM.
1. O=C(ON1C(=O)CCC1=O)N1CCN(Cc2ccc(-c3cccc(F)c3)cc2F)CC1
2. O=C(ON1C(=O)CCC1=O)N1CCN(Cc2ccc(Cl)cc2N2CCC(C(=O)N3CCCC3)CC2)CC1
3. Cc1nc(CN2CCN(C(=O)ON3C(=O)CCC3=O)CC2)ccc1-c1cccc(F)c1

-- reply
1: > 75%; 2: < 25%; 3: < 25%

====

Can you tell me inhibition at 10 µM for the items I'm about to list?
Biological target: MAGL (Mus musculus, UniProt O35678)
Sequence (O35678 1-303): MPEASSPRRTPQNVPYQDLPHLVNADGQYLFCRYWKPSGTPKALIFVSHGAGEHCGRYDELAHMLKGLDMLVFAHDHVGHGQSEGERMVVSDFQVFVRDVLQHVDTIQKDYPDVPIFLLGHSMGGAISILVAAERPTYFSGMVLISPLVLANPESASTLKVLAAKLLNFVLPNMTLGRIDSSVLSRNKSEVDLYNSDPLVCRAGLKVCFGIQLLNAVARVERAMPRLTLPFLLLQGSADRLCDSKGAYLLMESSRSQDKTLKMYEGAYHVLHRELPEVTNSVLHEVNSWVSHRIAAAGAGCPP
Assay: In vitro competitive ABPP, % inhibition at fixed concentration, MAGL
Format: biochemical
Design: from tissue
Method: In Vitro Competitive Activity-Based Protein Profiling. Proteomes (mouse brain membrane fraction or cell lysates) (50 μL, 1.0 mg/ml total protein concentration) were preincubated with varying concentrations of inhibitors at 37° C. […] Following gel imaging, serine hydrolase activity was determined by measuring fluorescent intensity of gel bands corresponding to MAGL, ABHD6 and FAAH using ImageJ 1.43u software.

Value sought for every listed molecule: inhibition at 10 µM.
1. O=C(ON1C(=O)CCC1=O)N1CCC(N2CCCCC2)CC1
2. O=C(CN1CCC1)N1CCN(C(=O)ON2C(=O)CCC2=O)CC1
3. O=C(CN1CCCCC1)N1CCN(C(=O)ON2C(=O)CCC2=O)CC1
4. O=C(ON1C(=O)CCC1=O)N1CCN(C(=O)c2ccccc2)CC1
5. O=C(ON1C(=O)CCC1=O)N1CCN(C(=O)c2cccc(Cl)c2)CC1
6. CC(=O)N1CCN(C(=O)ON2C(=O)CCC2=O)CC1
7. O=C(CN1CCOCC1)N1CCN(C(=O)ON2C(=O)CCC2=O)CC1

-- reply
1. < 25%
2. < 25%
3. < 25%
4. 25 to 75%
5. 25 to 75%
6. < 25%
7. < 25%

Value sought for every listed molecule: inhibition at 10 µM.
1. O=C(ON1C(=O)CCC1=O)N1CCC(N2CCCC2)CC1
2. CS(=O)(=O)N1CCN(C(=O)ON2C(=O)CCC2=O)CC1

-- reply
1: < 25%; 2: < 25%
